- Test system: normal NK cells expanded with K562-aAPC
- ASSAY REMARKS: drug sensitivity score (DSS) (DSS units); higher = more sensitive; extreme values may be limits of the assay
- MEASUREMENT CONTEXT: 72 h; IL-2 2.5 ng/mL
Label scheme for drug sensitivity score: lower than 0.04 is 0.0, 0.04 and above is 1.0.

Solved cases below.
MOLECULE	TESTED TARGET	LABEL
O=C(Nc1c[nH]nc1-c1nc2ccc(CN3CCOCC3)cc2[nH]1)NC1CC1 [AT9283] (max concentration tested 1000 nM)	normal NK cells expanded with K562-aAPC	1.0
O=C(NOC[C@H](O)CO)c1ccc(F)c(F)c1Nc1ccc(I)cc1F (max concentration tested 1000 nM)	normal NK cells expanded with K562-aAPC	0.0
C[C@@H]1COC(Nc2ccc3ncnc(Nc4ccc(OCc5nccs5)c(Cl)c4)c3c2)=N1 [Varlitinib] (max concentration tested 10000 nM)	normal NK cells expanded with K562-aAPC	0.0

Attention now turns to another entry.
Exercise: Decide: is the reported value of drug sensitivity score for CNC(=O)c1nn(C)c2c1C(C)(C)Cc1cnc(Nc3ccc(N4CCN(C)CC4)cc3)nc1-2 [Milciclib] (max concentration tested 10000 nM) equal to or greater than 0.04?
Key: 1.0
